- Experiment notes: Pharmacokinetic assay in male SD rats, single gavage
- Type: in vivo
- Condition: Sprague-Dawley (SD), rat, oral dose 5 mg/kg, plasma
Result type: Cmax (ng/mL)

> print(dat)
                               entry.smiles  result.type  measurement.unit  reported.measurement
1  CCS(=O)(=O)Nc1cc(-c2cn(C)c(=O)c3[nH]ccc23)nc2c1ncn2Cc1ccc(F)cc1F         Cmax             ng/mL                  3290

----------
- Experiment notes: Pharmacokinetic assay in male SD rats, single gavage
- Type: in vivo
- Condition: Sprague-Dawley (SD), rat, oral dose 10 mg/kg, plasma
Parameter half-life: see the listing below.
Result type: half-life

> print(dat)
                               entry.smiles  reported.measurement
1  Cc1nc2ncc(-c3cn(C)c(=O)c4[nH]ccc34)nc2n1Cc1ccc(Cl)c(C(F)(F)F)c1                 3.8 h
2  Cc1nc2ncc(-c3cn(C)c(=O)c4[nH]ccc34)nc2n1Cc1ccc(C(F)(F)F)cc1                 4.5 h
3  Cc1nc2ncc(-c3cn(C)c(=O)c4[nH]ccc34)nc2n1Cc1cccc(C(F)(F)F)c1                 3.3 h
4  CCS(=O)(=O)Nc1cc(-c2cn(C)c(=O)c3[nH]ccc23)nc2c1ncn2Cc1ccc(C(F)(F)F)cc1                 2.3 h
5  Cn1cc(-c2cnc3cnn(Cc4ccc(Cl)cc4)c3c2)c2cc[nH]c2c1=O                 4.1 h
6  Cc1nc2ncc(-c3cn(C)c(=O)c4[nH]ccc34)nc2n1Cc1ccc(Cl)cc1                 3.4 h

----------
- Study system: BRD4(D1) (Homo sapiens (Human))
- Experiment notes: Inhibitory activity against BRD4(D1), HTRF assay
- Format: binding
- Condition: class symbols
Result type: IC50

> print(dat)
                                    compound                     study.system  reported.measurement
 1  CCS(=O)(=O)Nc1cc(-c2cn(C)c(=O)c3[nH]ccc23)nc2c1ncn2C(C)c1ccc(Cl)cc1 (stereo not drawn)  BRD4(D1) (Homo sapiens (Human))         0.1 to 0.3 µM
 2  COc1ccc(Cn2c(C)nc3ncc(-c4cn(Cc5ccn[nH]5)c(=O)c5[nH]ccc45)cc32)cc1  BRD4(D1) (Homo sapiens (Human))              > 0.3 µM
 3  Cc1nc2ncc(-c3cn(C)c(=O)c4[nH]ccc34)nc2n1Cc1ccc(S(C)(=O)=O)cc1  BRD4(D1) (Homo sapiens (Human))              < 0.1 µM
 4  CCS(=O)(=O)Nc1cc(-c2cn(C)c(=O)c3[nH]ccc23)nc2c1ncn2Cc1ccccc1C(F)(F)F  BRD4(D1) (Homo sapiens (Human))              < 0.1 µM
 5  COc1ccc(Cn2c(C)nc3ncc(-c4c[nH]c(=O)c5[nH]c(C)cc45)cc32)cc1  BRD4(D1) (Homo sapiens (Human))         0.1 to 0.3 µM
 6  CCS(=O)(=O)Nc1cc(-c2cn(C)c(=O)c3[nH]ccc23)cc2c1nc(C)n2Cc1cc(F)cc(C(F)(F)F)c1  BRD4(D1) (Homo sapiens (Human))              < 0.1 µM
 7  CCS(=O)(=O)Nc1cc(-c2cn(C)c(=O)c3[nH]ccc23)cc2c1nc(C)n2Cc1ccc(Cl)cc1F  BRD4(D1) (Homo sapiens (Human))              < 0.1 µM
 8  Cc1nc2ncc(-c3cn(C)c(=O)c4[nH]ccc34)nc2n1Cc1ccccc1  BRD4(D1) (Homo sapiens (Human))              < 0.1 µM
 9  Cc1nc2ncc(-c3cn(C)c(=O)c4[nH]ccc34)nc2n1Cc1ccc(Br)cc1  BRD4(D1) (Homo sapiens (Human))              < 0.1 µM
10  Cc1nc2ncc(-c3cn(C)c(=O)c4[nH]ccc34)nc2n1Cc1cc(C(F)(F)F)ccc1F  BRD4(D1) (Homo sapiens (Human))              < 0.1 µM
11  CCS(=O)(=O)Nc1cc(-c2cn(C)c(=O)c3[nH]ccc23)nc2c1nc(C)n2Cc1cc(F)cc(F)c1  BRD4(D1) (Homo sapiens (Human))              < 0.1 µM
12  Cc1nc2ncc(-c3cn(Cc4cccnc4)c(=O)c4[nH]ccc34)cc2n1Cc1ccc(Cl)cc1  BRD4(D1) (Homo sapiens (Human))              > 0.3 µM
13  Cc1nc2ncc(-c3cn(C)c(=O)c4[nH]ccc34)nc2n1Cc1ccc(F)cc1F  BRD4(D1) (Homo sapiens (Human))              < 0.1 µM
14  CCS(=O)(=O)Nc1cc(-c2cn(C)c(=O)c3[nH]ccc23)cc2c1nc(C)n2Cc1cc(C(F)(F)F)ccc1F  BRD4(D1) (Homo sapiens (Human))              < 0.1 µM
15  Cn1cc(-c2cnc3ncnc(Nc4ccc(Cl)cc4)c3c2)c2cc[nH]c2c1=O  BRD4(D1) (Homo sapiens (Human))              > 0.3 µM

----------
- Experiment notes: Pharmacokinetic assay in male SD rats, single gavage
- Format: in vivo
- Condition: Sprague-Dawley (SD), rat, oral dose 20 mg/kg, plasma
Result type: AUC(0-t) (ng·h/mL)

> print(dat)
                               entry.smiles  result.type  reported.measurement
1  Cc1nc2ncc(-c3cn(C)c(=O)c4[nH]ccc34)nc2n1Cc1cc(F)cc(C(F)(F)F)c1     AUC(0-t)                 13500

----------
- Study system: BRD4(D1) (Homo sapiens (Human), UniProt O60885)
- Experiment notes: Inhibitory activity against BRD4(D1), HTRF assay
- Type: binding
- Condition: numeric values
pIC50: −log10 of the molar value.
Result type: pIC50

> print(dat)
                                   compound                              study.system  reported.measurement
1  Cc1nc2ncc(-c3cn(C)c(=O)c4[nH]ccc34)nc2n1Cc1ccc(C(F)(F)F)cc1  BRD4(D1) (Homo sapiens (Human), UniProt O60885)                  8.04
2  Cc1nc2ncc(-c3cn(C)c(=O)c4[nH]ccc34)cc2n1C  BRD4(D1) (Homo sapiens (Human), UniProt O60885)                  7.28
3  Cn1cc(-c2cnc3ccn(Cc4c(Cl)cccc4Cl)c3c2)c2cc[nH]c2c1=O  BRD4(D1) (Homo sapiens (Human), UniProt O60885)                  7.82
4  Cn1cc(-c2cnc3cnn(Cc4ccc(Cl)cc4)c3c2)c2cc[nH]c2c1=O  BRD4(D1) (Homo sapiens (Human), UniProt O60885)                  7.67
5  Cn1cc(-c2cnc3[nH]c(=O)n(Cc4ccc(Cl)cc4)c3c2)c2cc[nH]c2c1=O  BRD4(D1) (Homo sapiens (Human), UniProt O60885)                  6.97
6  Cc1[nH]c2ncc(-c3cn(C)c(=O)c4[nH]ccc34)cc2c1C(C)c1c(Cl)ccc(F)c1Cl (centres unmarked)  BRD4(D1) (Homo sapiens (Human), UniProt O60885)                  7.35
7  CCS(=O)(=O)Nc1cc(-c2cn(C)c(=O)c3[nH]ccc23)nc2c1nc(C)n2Cc1ccc(F)cc1F  BRD4(D1) (Homo sapiens (Human), UniProt O60885)                  8.96
8  COc1ccc(Cn2c(C)nc3ncc(-c4cn(C)c(=O)c5[nH]ccc45)nc32)cc1  BRD4(D1) (Homo sapiens (Human), UniProt O60885)                  7.89

----------
- Study system: BRD4(D1) (Homo sapiens (Human), UniProt O60885)
- Experiment notes: Inhibitory activity against BRD4(D1), HTRF assay
- Assay type: binding
- Condition: class symbols
Result type: IC50

> print(dat)
                               entry.smiles                              study.system  reported.measurement
1  CCS(=O)(=O)Nc1cc(-c2cn(C)c(=O)c3[nH]ccc23)cc2c1nc(C)n2Cc1ccccc1  BRD4(D1) (Homo sapiens (Human), UniProt O60885)              < 100 nM
2  COc1ccc(Cn2c(C)nc3ncc(-c4cn(CC(C)C)c(=O)c5[nH]ccc45)cc32)cc1  BRD4(D1) (Homo sapiens (Human), UniProt O60885)              > 300 nM
3  COc1ccc(Cn2c(C)nc3ncc(-c4cn(Cc5ccccc5)c(=O)c5[nH]ccc45)cc32)cc1  BRD4(D1) (Homo sapiens (Human), UniProt O60885)              > 300 nM
4  Cc1nc2ncc(-c3cn(C)c(=O)c4[nH]ccc34)nc2n1Cc1cccc(C(F)(F)F)c1  BRD4(D1) (Homo sapiens (Human), UniProt O60885)              < 100 nM
5  COC(=O)c1ccc(Cn2c(C)nc3ncc(-c4cn(C)c(=O)c5[nH]ccc45)cc32)cc1  BRD4(D1) (Homo sapiens (Human), UniProt O60885)         100 to 300 nM
6  CCS(=O)(=O)Nc1cc(-c2cn(C)c(=O)c3[nH]ccc23)cc2c1nc(C)n2Cc1ccc(Br)cc1  BRD4(D1) (Homo sapiens (Human), UniProt O60885)              < 100 nM
7  CCS(=O)(=O)Nc1cc(-c2cn(C)c(=O)c3[nH]ccc23)cc2c1nc(C)n2Cc1ccc(S(C)(=O)=O)cc1  BRD4(D1) (Homo sapiens (Human), UniProt O60885)              < 100 nM
8  CCS(=O)(=O)Nc1cc(-c2cn(C)c(=O)c3[nH]ccc23)nc2c1ncn2Cc1cc(C(F)(F)F)ccc1F  BRD4(D1) (Homo sapiens (Human), UniProt O60885)              < 100 nM

All figures here come from patent US11466034B2.
